# log10 of IC50 values compiled below
test system: HeLa; assay: Antiproliferative activity against human HeLa cells assessed as cell viability incubated for 48 hrs by MTT assay; type: functional, cell-based
Please be aware that the numbers have been log10-transformed from IC50 in µM.

In the examples that follow, each entry is paired with its recorded log10 of IC50.
>  <smiles-code>
COc1ccc(C(=O)c2ccc(OC)c3c2OC(C)(C)C=C3)c(NC(=O)CO)c1

>  <log10 of IC50>
-1.00

$$$$
>  <smiles-code>
COc1ccc(C(=O)c2ccc3c(c2)C=CC(C)(C)O3)c(NC(=O)CBr)c1

>  <log10 of IC50>
0.48

$$$$
>  <smiles-code>
C=C(c1ccc2c(c1)C=CC(C)(C)O2)c1ccc(OC)cc1NC(=O)CN(C)C

>  <log10 of IC50>
-0.19

$$$$
>  <smiles-code>
COc1ccc(C(=O)c2cc(OC)c(OC)c(OC)c2)c(NC(=O)CO)c1

>  <log10 of IC50>
-1.15

$$$$
>  <smiles-code>
C=C(c1cc(OC)c(OC)c(OC)c1)c1ccc(OC)cc1NC(=O)CN

>  <log10 of IC50>
-1.15

$$$$

Exercise: Give recorded log10 of IC50. C=C(c1ccc(OC)cc1NC(=O)CN)c1ccc(OC)c2c1C=CC(C)(C)O2
Solution: -0.70

Exercise: Note log10 of IC50 for the molecule shown: COc1ccc(C(=O)c2cc(OC)c(OC)c(OC)c2)c(NC(=O)CN(C)C)c1
Solution: -0.33

Exercise: State its log10 of IC50: C=C(c1ccc(OC)cc1NC(=O)CNC)c1ccc(OC)c2c1OC(C)(C)C=C2
Solution: -0.51

* * *

Entries and their measured IC50 follow.
tested on: HeLa; test: Antiproliferative activity against human HeLa cells assessed as cell viability incubated for 48 hrs by MTT assay; assay type: functional, cell-based
Return type: number; implicit unit nM.

>  <smiles-code>
C=C(c1ccc(OC)cc1NC(=O)CN(C)C)c1ccc(OC)c2c1C=CC(C)(C)O2

>  <measure-unit>
nM

>  <IC50>
790

$$$$
>  <smiles-code>
C=C(c1ccc2c(c1)C=CC(C)(C)O2)c1ccc(OC)cc1NC(=O)CN

>  <measure-unit>
nM

>  <IC50>
160

$$$$
>  <smiles-code>
C=C(c1cc(OC)c(OC)c(OC)c1)c1ccc(OC)cc1NC(=O)CN(C)C

>  <measure-unit>
nM

>  <IC50>
370

$$$$
>  <smiles-code>
COc1ccc(C(=O)c2ccc3c(c2)C=CC(C)(C)O3)c(NC(=O)CN(C)C)c1

>  <measure-unit>
nM

>  <IC50>
1260

$$$$
>  <smiles-code>
COc1ccc(C(=O)c2cc(OC)c(OC)c(OC)c2)cc1O

>  <measure-unit>
nM

>  <IC50>
220

$$$$
>  <smiles-code>
CNCC(=O)Nc1cc(OC)ccc1C(=O)c1ccc2c(c1)C=CC(C)(C)O2

>  <measure-unit>
nM

>  <IC50>
970

$$$$

Exercise: Fill: IC50 (HeLa) for this molecule COc1ccc(/C=C/C(=O)c2ccc(OC)c3c2OC(C)(C)C=C3)cc1
Solution: 6030

Exercise: State measured IC50 of the molecule C=C(c1cc(OC)c(OC)c(OC)c1)c1ccc(OC)c(O)c1NC(=O)COC with HeLa.
Solution: 330

Exercise: System HeLa. Read-out IC50. Item C=C(c1cc(OC)c(OC)c(OC)c1)c1ccc(OC)c(O)c1NC(=O)CN(C)C . Report value.
Solution: 120

Exercise: // fetch IC50 for C=C(c1cc(OC)c(OC)c(OC)c1)c1ccc(OC)c(O)c1NC(C)=O ; system: HeLa
Solution: 90

Exercise: Lab note: HeLa assay, enter IC50 for CCNCC(=O)Nc1cc(OC)ccc1C(=O)c1ccc(OC)c2c1C=CC(C)(C)O2 here
Solution: 4270

Exercise: For HeLa, give IC50 of the listed molecule: COc1ccc(C(=O)c2ccc(OC)c3c2OC(C)(C)C=C3)c(NC(=O)CN)c1
Solution: 410

Exercise: Name the recorded IC50 of C=C(c1ccc2c(c1)C=CC(C)(C)O2)c1ccc(OC)cc1NC(=O)CNCC , assay system HeLa.
Solution: 1580

Exercise: Give IC50 only, for C=C(c1cc(OC)c(OC)c(OC)c1)c1ccc(OC)c(O)c1NC(=O)COCC , using HeLa data.
Solution: 690

Exercise: Return reported IC50 for target or system HeLa, item COc1ccc(C(=O)c2ccc(OC)c3c2C=CC(C)(C)O3)c(NC(=O)CN(C)C)c1 .
Solution: 3620

* * *

test system: HeLa; assay: Antiproliferative activity against human HeLa cells assessed as cell viability incubated for 48 hrs by MTT assay; format: functional, cell-based
Below is a list of entries, each paired with its recorded IC50 value.
Respond numerically; units are nM and should not be typed.

>  <smiles-code>
CCNCC(=O)Nc1cc(OC)ccc1C(=O)c1cc(OC)c(OC)c(OC)c1

>  <meas-value>
2100

$$$$
>  <smiles-code>
C=C(c1ccc(OC)cc1NC(=O)CN(C)C)c1ccc(OC)c2c1OC(C)(C)C=C2

>  <meas-value>
900

$$$$

Exercise: State, in one line, measured IC50 of COc1ccc(C(=O)c2cc(OC)c(OC)c(OC)c2)c(NC(=O)CN)c1
Solution: 130

Exercise: Quickly give me recorded IC50 for C=C(c1ccc(OC)cc1NC(=O)CO)c1ccc(OC)c2c1C=CC(C)(C)O2
Solution: 100

Exercise: Identify measured IC50 associated with COc1ccc(C(=O)c2ccc(OC)c3c2OC(C)(C)C=C3)c(NC(=O)CBr)c1
Solution: 2140

Exercise: Hello, please tell me recorded IC50 for this one: C=C(c1cc(OC)c(OC)c(OC)c1)c1ccc(OC)c(O)c1NC(=O)CO
Solution: 20

Exercise: Fill in reported IC50 for this entry: C=C(c1cc(OC)c(OC)c(OC)c1)c1ccc(OC)cc1NC(=O)CNC
Solution: 140

Exercise: Determine its reported IC50: C=C(c1cc(OC)c(OC)c(OC)c1)c1ccc(OC)cc1NC(=O)CNCC
Solution: 430

Exercise: Quick one: give measured IC50 for C=C(c1ccc2c(c1)C=CC(C)(C)O2)c1ccc(OC)cc1NC(=O)CO
Solution: 100
